Measured values drawn from ChEMBL document CHEMBL1149153 for this set.

// inhibition lookup, one value per entry
TARGET OR SYSTEM: Prostaglandin G/H synthase 2 (Homo sapiens)
PARTICULARS: Blood; at 10 µM
Description: Evaluation for percent inhibition of prostaglandin G/H synthase 2 in human whole blood (HWB) at a concentration of 10 um
The reply should be a number in %, with the unit left off.

Example cases with answers are listed next.
{"columns": ["MOL SMILES", "inhibition [%]"],
 "data": [
  ["CS(=O)(=O)c1ccc(-c2cc(CCCO)nn2CC2CCCCC2)cc1", 90],
  ["CS(=O)(=O)c1ccc(-c2cc(C(=O)CCCO)nn2-c2ccc(F)cc2)cc1", 25],
  ["CS(=O)(=O)c1ccc(-c2cc(C(=O)CCCO[N+](=O)[O-])nn2-c2ccc(C#N)cc2)cc1", 55],
  ["CS(=O)(=O)c1ccc(-c2cc(C(=O)CCCO[N+](=O)[O-])nn2C2CCCCC2)cc1", 80],
  ["CS(=O)(=O)c1ccc(-c2cc(/C(CCCCCO[N+](=O)[O-])=N\\O)nn2C2CCCCC2)cc1", 35]
]}

Incoming: GET /values?readout=inhibition&item= "CS(=O)(=O)c1ccc(-c2cc(C(=O)CCCO)nn2-c2ccc(C(F)(F)F)cc2)cc1"
Outgoing: 10

Incoming: GET /values?readout=inhibition&item= "CS(=O)(=O)c1ccc(-c2cc(/C=C/CO)nn2C2CCCCC2)cc1"
Outgoing: 15

Incoming: GET /values?readout=inhibition&item= "CS(=O)(=O)c1ccc(-c2cc(C(=O)CCCO[N+](=O)[O-])nn2-c2ccc(F)cc2)cc1"
Outgoing: 100

Incoming: GET /values?readout=inhibition&item= "CS(=O)(=O)c1ccc(-c2cc(/C=C\CCO[N+](=O)[O-])nn2C2CCCCC2)cc1"
Outgoing: 95
